// reported self-cleavage per item
B1: CPEB3 Ribozyme (parent)
chain: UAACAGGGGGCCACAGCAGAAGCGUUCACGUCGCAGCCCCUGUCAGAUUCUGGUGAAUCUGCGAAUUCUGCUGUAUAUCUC

Variants of: B1
Assay: self-cleavage, relative activity (ratio to wild type); higher = more cleavage; in vitro, sequencing
OBSERVED PROPERTY: self-cleavage

> print(dat)
    variant.spec  observed.result
 1     G33A U43C             0.29
 2     A13C C79U             1.11
 3     A18U U76C             0.39
 4     C37G U80G             1.16
 5     A35U G63U             0.52
 6     A21C C71G             0.11
 7     C23G A28U             0.23
 8     C32U A57U             0.13
 9          A18U              0.4
10     A20C A45U              0.2
11     A18G C34U             0.15
12     U48C U54G             0.38
13     U43A U69G             0.82
14     A13G U41A             0.27
15     U25G U74G             0.37
16     C12U C23U             0.52
17     G42A U54A             0.45
18     U41C A45G             0.92
19     A45G U51C              0.7
20     G30U U66A             0.13
21      U1C G36A             0.21
22     A21U U31C              0.3
23     A35C A64U             0.25
24     U26A C32G             0.13
25     A15C C29U             0.22
26     U49G C81U             0.77
27     G53A A65G             0.52
28       A3G G6U             0.57
29     G10C U69C             0.12
30      G7A U78C             0.15
31      A2G G33C             0.32
32     A35U U67G             0.35
33     U43A A56C             0.73
34     A47G G61C             0.35
35     A15U U69A             0.25
36          A75G             1.01
37     A21C U60A             0.36
38     C11A U41C             0.58
39     A65G C79A             0.67
40     C12U U67A             0.86
41     U54G U60G             0.42
42     C11A U25C             0.25
43     A21U G73A             0.88
44     U31A A64U             0.29
45     G10A U72C             0.39
46     A65G U66A             0.17
47     G16A A20U             0.16
48     A45U G63A             0.54
49      A3U C71U             0.83
50      A2G G22A             0.22
51      G9U U54A             0.08
52     U54C C62A             0.13
53     U25C A77C              0.3
54      G8A C38U             0.08
55     U26A U41G             0.33
56     A47U U69A             0.34
57     C32G U72C             0.11
58      G6A U26A             0.19
59     U26A C34G             0.41
60      U1A A21G             0.55
61     A21G U48C              0.3
62     G10C U72A             0.14
63     G42U U69G             0.14
64     U25G U72A             0.21
65     G52U U74A             1.26
66     A15U C38G             0.25
67     G24U U60A             0.16
68     C23U A35G             0.95
69     C38U G46A             0.24
70     A64G U66A             0.32
71     C14U A35U             1.04
72     A35U U80C             0.63
73     G30A A77U             0.33
74     G19U U76A             0.18
75     G16A A28U             0.21
76     G19U U58G             0.12
77     C23G U58C             0.21
78     U43C C81U              0.7
79     A18G C32U              0.2
80     G30U G52A             0.17
81     A20U U80C             0.37
82     C12G U67C             0.08
83     A13G A28G             0.39
84      U1C U41C             0.87
85          G16A             0.34
86      A5G C17U             0.47
87      A2U U26C             0.55
88     A15C C59U             0.85
89           U1C             0.84
90     G63A U80A             0.97
91     U41C U76C             1.05
